# MEASURED_TARGET: 5-HT1A receptor (Homo sapiens, UniProt P08908)
# Sequence (P08908 whole entry): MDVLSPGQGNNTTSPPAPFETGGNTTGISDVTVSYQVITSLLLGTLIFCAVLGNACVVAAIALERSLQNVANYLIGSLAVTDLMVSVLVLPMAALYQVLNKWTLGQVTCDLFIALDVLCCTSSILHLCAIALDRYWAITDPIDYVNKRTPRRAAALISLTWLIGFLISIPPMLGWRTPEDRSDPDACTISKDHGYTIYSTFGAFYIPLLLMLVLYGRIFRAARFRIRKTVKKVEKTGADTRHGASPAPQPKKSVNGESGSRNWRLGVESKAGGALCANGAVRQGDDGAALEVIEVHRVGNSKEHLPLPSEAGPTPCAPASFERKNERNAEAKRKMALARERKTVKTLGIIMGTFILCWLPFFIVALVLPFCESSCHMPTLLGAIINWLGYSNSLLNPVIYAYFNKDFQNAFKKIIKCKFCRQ
# EXPERIMENT: cAMP accumulation assay, 5-HT1A function
# Assay type: cell-based
# CONDITION_INFO: cells marked IC50 (antagonist); read-out: 5-HT1A Function cAMP IC50
OBSERVABLE: IC50 (nM)

1) CC(CCc1c[nH]c2c(F)cc(F)cc12)N(CC1CC1)C1COc2c(F)ccc(C(N)=O)c2C1 (single isomer, unassigned) [Compound 154c] : 3090
2) NC(=O)c1ccc(F)c2c1C[C@@H](N(CCCc1c[nH]c3c(F)cc(F)cc13)CC1CC1)CO2 : 505
3) COc1cccc2c1CC(N(CCCc1c[nH]c3ccc(C#N)cc13)C1CCC1)CO2 (stereo not shown) : 899
4) CC(Cc1c[nH]c2ccc(F)cc12)CN(CC1CC1)[C@H]1COc2c(F)ccc(C(N)=O)c2C1 (single isomer, unassigned) [Compound 155a] : 106
5) NC(=O)c1ccc(F)c2c1CC(N(CCC(=O)c1c[nH]c3ccc(F)cc13)C1CCC1)CO2 (stereo not shown) : 478
6) CCN(CCCCc1c[nH]c2ccc(F)cc12)C1COc2c(F)ccc(C(N)=O)c2C1 (stereo not shown) : 1370
7) NC(=O)c1ccc(F)c2c1C[C@@H](N(CC1CC1)CC1CCc3[nH]c4ccc(F)cc4c3C1)CO2 (single isomer, unassigned; (+)) [Compound 178b] : 224
8) C[C@@H](CCN(C1CCC1)[C@H]1COc2c(F)ccc(C(N)=O)c2C1)c1c[nH]c2ccc(F)cc12 [Compound 153a] : 727
9) NC(=O)c1ccc(F)c2c1C[C@@H](NCC1CCc3c([nH]c4ccc(F)cc34)C1)CO2 (single isomer, unassigned; (-)) [Compound 179b] : 956
10) NC(=O)c1ccc(F)c2c1CC(N(CCc1c[nH]c3ccc(F)cc13)CC1CC1)CO2 (stereo not shown) : 97.1
11) CCCN(CCCc1c[nH]c2ccc(F)cc12)C1COc2c(F)ccc(C(=O)NC)c2C1 (stereo not shown) : 73.8
12) NC(=O)c1ccc(F)c2c1CC(N(CCCc1c[nH]c3cc(F)ccc13)CC1CC1)CO2 (stereo not shown) [Compound 52a] : 118
13) NC(=O)c1ccc(F)c2c1C[C@@H](N(CCCCc1c[nH]c3ccc(F)cc13)C1CCC1)CO2 [Compound 83a] : 173
14) CCCN(CCc1c[nH]c2ccc(F)cc12)C1COc2c(F)ccc(C(N)=O)c2C1 (stereo not shown) : 68.3
15) NC(=O)c1ccc(F)c2c1CC(N(CCCc1c[nH]c3c(F)cc(F)cc13)C1CCC1)CO2 (single isomer, unassigned; (-)) [Compound 9a] : 61.1
16) COc1cccc2c1C[C@@H](N(CCCc1c[nH]c3ccc(F)cc13)C1CCC1)CO2 : 23.4
17) NC(=O)c1ccc(F)c2c1C[C@@H](NCC1CCc3[nH]c4ccc(F)cc4c3C1)CO2 (single isomer, unassigned; (-)) [Compound 175a] : 1480
18) C[C@@H](CCN(C1CCC1)[C@@H]1COc2c(F)ccc(C(N)=O)c2C1)c1c[nH]c2ccc(F)cc12 [Compound 153b] : 166
19) NC(=O)c1ccc(F)c2c1CC(N(CCCc1c[nH]c3ccc(Cl)cc13)CC1CC1)CO2 (stereo not shown) : 168
20) COc1cccc2c(CCCNC3COc4c(F)ccc(C(N)=O)c4C3)coc12 (stereo not shown) : 607
21) CCCN(C(C)CCCc1c[nH]c2ccc(F)cc12)C1COc2c(F)ccc(C(N)=O)c2C1 (single isomer, unassigned; (-)) [Compound 14b] : 110
22) CNC(=O)c1ccc(F)c2c1CC(N(CCCc1c[nH]c3ccc(F)cc13)CC1CC1)CO2 (stereo not shown) : 88.3
23) COc1cccc2c(CCCN(CC3CC3)C3COc4c(F)ccc(C(N)=O)c4C3)coc12 (stereo not shown) : 52.3
24) CCNC(=O)c1ccc(F)c2c1CC(N(CCCc1c[nH]c3ccc(F)cc13)C1CCC1)CO2 (stereo not shown) : 116
25) NC(=O)c1ccc(F)c2c1CC(N(CCCc1c[nH]c3cc(F)ccc13)C1CCC1)CO2 (stereo not shown) : 486
26) CCN(CC1CCc2[nH]c3ccc(F)cc3c2C1)[C@H]1COc2c(F)ccc(C(N)=O)c2C1 (single isomer, unassigned; (-)) [Compound 176a] : 878
27) CCCN(C(C)CCc1c[nH]c2ccc(F)cc12)C1COc2c(F)ccc(C(N)=O)c2C1 (single isomer, unassigned) [Compound 12c] : 73.7
28) CCCN(CCCCc1coc2c(OC)cccc12)C1COc2c(F)ccc(C(N)=O)c2C1 (stereo not shown) : 11.3

// data source = patent US20050032873A1
